Every entry's value here was drawn from ChEMBL document CHEMBL3885861.

- Species on record: Rattus norvegicus
- assayComment: Open TG-GATES - Regimen: Daily Repeat
- Assay type: toxicity, organism-based, Sprague-Dawley
- Set-up: regimen Daily Repeat, gender Male, age 6 weeks
- experimentalContext: in vivo, po, 10 mg/kg, […], tissue Blood, route gavage, dose level Low, time 28 day

[
  {
    "compound": "CC1=C(/C=C/C(C)=C/C=C/C(C)=C/CO)C(C)(C)CCC1 [RETINOL]",
    "unitsOfMeasure": "%",
    "Eos": 1
  },
  {
    "compound": "CC(C)OC(=O)C(C)(C)Oc1ccc(C(=O)c2ccc(Cl)cc2)cc1 [FENOFIBRATE]",
    "unitsOfMeasure": "%",
    "Eos": 1.2
  },
  {
    "compound": "CN(C)CCN(Cc1cccs1)c1ccccn1",
    "unitsOfMeasure": "%",
    "Eos": 1.2
  },
  {
    "compound": "CN(C)CCCN1c2ccccc2CCc2ccccc21 [IMIPRAMINE]",
    "unitsOfMeasure": "%",
    "Eos": 1.4
  }
]
